protocol.details: Solubility in H2O
Assay type: physicochemical
test.context: water
observable: solubility (µg/mL)

In [3]: df
Out[3]:
                                        smi  result_units  result
0  COc1ccc(-c2ccc3[nH]c(=O)c4ncn(-c5ccc(N6CCNCC6)c(C(F)(F)F)c5)c4c3c2)cn1         µg/mL      59
1  COc1ccc(-c2ccc3[nH]c(=O)c4ccc(-c5ccc(N6CCNCC6)c(C(F)(F)F)c5)n4c3c2)cn1         µg/mL     7.9
2  COc1ccc(-c2ccc3[nH]c(=O)c4cnc(-c5ccc(N6CCNCC6)c(C(F)(F)F)c5)n4c3c2)cn1         µg/mL      33

A. COc1ccc(-c2ccc3[nH]c(=O)c4cnn(-c5ccc(N6CCNCC6)c(C(F)(F)F)c5)c4c3c2)cn1
B. COc1ccc(-c2ccc3c(c2)-n2c(nnc2-c2ccc(N4CCNCC4)c(C(F)(F)F)c2)CC(=O)N3)cn1
Exercise: Dear colleague, could you let me know whether A or B has the lower recorded solubility? Thanks. Please indicate the selected item by its label.
Solution: A
(A: 108 µg/mL, B: 1210 µg/mL)

* * *

target.desc: Proto-oncogene tyrosine-protein kinase receptor Ret (Homo sapiens) (UniProt P07949)
Sequence (P07949 whole entry): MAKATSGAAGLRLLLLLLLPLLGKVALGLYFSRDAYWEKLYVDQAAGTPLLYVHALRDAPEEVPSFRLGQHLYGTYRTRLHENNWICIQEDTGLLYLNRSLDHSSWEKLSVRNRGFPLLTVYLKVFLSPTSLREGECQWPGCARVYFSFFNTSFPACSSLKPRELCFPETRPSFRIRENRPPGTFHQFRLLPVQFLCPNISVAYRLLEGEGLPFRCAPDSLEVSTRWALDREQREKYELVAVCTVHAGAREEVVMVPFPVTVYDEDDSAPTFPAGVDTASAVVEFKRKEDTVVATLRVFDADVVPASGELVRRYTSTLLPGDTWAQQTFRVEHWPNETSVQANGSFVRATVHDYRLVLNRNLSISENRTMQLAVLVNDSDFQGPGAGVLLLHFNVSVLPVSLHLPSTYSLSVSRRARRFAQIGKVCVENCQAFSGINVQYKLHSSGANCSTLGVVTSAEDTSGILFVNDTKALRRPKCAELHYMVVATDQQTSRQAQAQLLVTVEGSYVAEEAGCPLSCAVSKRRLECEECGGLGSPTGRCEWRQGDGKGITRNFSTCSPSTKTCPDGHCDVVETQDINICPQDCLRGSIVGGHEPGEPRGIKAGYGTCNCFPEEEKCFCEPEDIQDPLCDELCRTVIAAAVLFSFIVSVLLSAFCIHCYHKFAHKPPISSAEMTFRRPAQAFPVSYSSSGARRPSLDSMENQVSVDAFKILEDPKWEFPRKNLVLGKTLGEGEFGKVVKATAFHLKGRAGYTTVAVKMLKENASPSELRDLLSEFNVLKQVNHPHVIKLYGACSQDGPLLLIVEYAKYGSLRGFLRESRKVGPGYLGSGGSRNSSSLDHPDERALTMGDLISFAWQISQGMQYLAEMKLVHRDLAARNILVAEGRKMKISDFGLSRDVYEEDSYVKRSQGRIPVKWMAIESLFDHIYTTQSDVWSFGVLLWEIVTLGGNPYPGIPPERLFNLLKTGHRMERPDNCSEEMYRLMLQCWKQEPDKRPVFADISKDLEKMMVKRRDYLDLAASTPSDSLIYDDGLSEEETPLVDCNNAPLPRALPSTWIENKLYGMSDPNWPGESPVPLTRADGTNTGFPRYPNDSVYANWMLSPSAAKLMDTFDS
protocol.details: Inhibition of RET (unknown origin) using peptide substrate at 1 uM incubated for 1 hr in presence of ATP by FRET-based Z'-Lyte assay
Activity calls are given as the source filed them. The calls are words filed in the database; no cut-off is given here.
observable: inhibition

The cases that follow already have their inhibition on record.
>>> df
                                        smi    result
0  COc1ccc(-c2ccc(NC(=O)c3cn(-c4ccc(N5CCNCC5)c(C(F)(F)F)c4)nn3)cc2)cn1  inactive
1  COc1ccc(-c2ccc3c(c2)-n2c(nnc2-c2ccc(N4CCNCC4)c(C(F)(F)F)c2)CC(=O)N3)cn1  inactive
2  COc1ccc(-c2ccc3[nH]c(=O)c4c(c3c2)n(-c2ccc(N3CCNCC3)c(C(F)(F)F)c2)c(=O)n4C)cn1  inactive
3  COc1ccc(-c2ccc3[nH]c(=O)c4ncn(-c5ccc(N6CCNCC6)c(C(F)(F)F)c5)c4c3c2)cn1  inactive

What the record says about COc1ccc(-c2ccc3[nH]c(=O)c4cnc(-c5ccc(N6CCNCC6)c(C(F)(F)F)c5)n4c3c2)cn1 : inhibition is inactive

What the record says about COc1ccc(-c2ccc3[nH]c(=O)c4ccc(-c5ccc(N6CCNCC6)c(C(F)(F)F)c5)n4c3c2)cn1 : inhibition is inactive

What the record says about COc1ccc(-c2ccc3[nH]c(=O)c4ncc(-c5ccc(N6CCNCC6)c(C(F)(F)F)c5)n4c3c2)cn1 : inhibition is inactive

What the record says about COc1ccc(-c2ccc3[nH]c(=O)c4cnn(-c5ccc(N6CCNCC6)c(C(F)(F)F)c5)c4c3c2)cn1 : inhibition is inactive

* * *

target.desc: Fibroblast growth factor receptor 2 (Homo sapiens) (UniProt P21802)
Sequence (P21802 22-821 limits assumed): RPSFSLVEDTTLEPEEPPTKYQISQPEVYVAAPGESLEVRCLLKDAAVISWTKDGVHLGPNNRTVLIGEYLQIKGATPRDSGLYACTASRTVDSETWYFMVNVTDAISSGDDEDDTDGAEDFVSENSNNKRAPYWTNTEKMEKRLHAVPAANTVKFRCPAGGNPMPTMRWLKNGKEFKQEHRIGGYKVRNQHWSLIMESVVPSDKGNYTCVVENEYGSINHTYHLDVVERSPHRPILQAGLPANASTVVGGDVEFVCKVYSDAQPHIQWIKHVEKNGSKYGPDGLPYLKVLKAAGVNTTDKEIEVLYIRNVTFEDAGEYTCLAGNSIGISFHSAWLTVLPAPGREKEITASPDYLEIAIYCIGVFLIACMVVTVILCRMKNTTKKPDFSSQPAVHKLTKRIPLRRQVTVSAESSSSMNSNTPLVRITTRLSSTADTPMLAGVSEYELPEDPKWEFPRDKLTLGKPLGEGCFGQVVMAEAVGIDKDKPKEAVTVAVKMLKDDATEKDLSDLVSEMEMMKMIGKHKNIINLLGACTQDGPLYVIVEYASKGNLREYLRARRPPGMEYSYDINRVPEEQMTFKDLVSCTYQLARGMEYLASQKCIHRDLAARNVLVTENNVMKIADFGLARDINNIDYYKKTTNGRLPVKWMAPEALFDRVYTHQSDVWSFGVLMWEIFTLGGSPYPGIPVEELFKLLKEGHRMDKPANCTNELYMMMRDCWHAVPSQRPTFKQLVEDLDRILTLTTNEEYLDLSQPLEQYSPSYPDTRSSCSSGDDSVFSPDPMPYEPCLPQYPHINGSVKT
protocol.details: Inhibition of FGFR2 (unknown origin) using peptide substrate at 1 uM incubated for 1 hr in presence of ATP by FRET-based Z'-Lyte assay relative to control
observable: inhibition

The cases that follow already have their inhibition on record.
>>> df
                                        smi  result
0  COc1ccc(-c2ccc3c(c2)-n2c(nnc2-c2ccc(N4CCNCC4)c(C(F)(F)F)c2)CC(=O)N3)cn1   < 30%
1  COc1ccc(-c2ccc3[nH]c(=O)c4ccc(-c5ccc(N6CCNCC6)c(C(F)(F)F)c5)n4c3c2)cn1   < 30%
2  COc1ccc(-c2ccc3[nH]c(=O)c4c(c3c2)n(-c2ccc(N3CCNCC3)c(C(F)(F)F)c2)c(=O)n4C)cn1   < 30%
3  COc1ccc(-c2ccc(NC(=O)c3cn(-c4ccc(N5CCNCC5)c(C(F)(F)F)c4)nn3)cc2)cn1   < 30%
4  COc1ccc(-c2ccc3[nH]c(=O)c4cnn(-c5ccc(N6CCNCC6)c(C(F)(F)F)c5)c4c3c2)cn1   < 30%

What the record says about COc1ccc(-c2ccc3[nH]c(=O)c4ncc(-c5ccc(N6CCNCC6)c(C(F)(F)F)c5)n4c3c2)cn1 : inhibition is < 30%

What the record says about COc1ccc(-c2ccc3[nH]c(=O)c4ncn(-c5ccc(N6CCNCC6)c(C(F)(F)F)c5)c4c3c2)cn1 : inhibition is < 30%

What the record says about COc1ccc(-c2ccc3[nH]c(=O)c4cnc(-c5ccc(N6CCNCC6)c(C(F)(F)F)c5)n4c3c2)cn1 : inhibition is < 30%
